Source of measurements: patent US7449545B2

System: Candida albicans ATCC 10231
Type: cell-based
measurement-parameters: Mueller Hinton Broth; complete growth inhibition not achieved
Ends that are not written are not given here.
readout-kind: peptide concentration giving 75% inhibition of growth (value in parentheses)

[[record]]
substance = "YIVYKIRRAWKRSKALK-OH [BOL-53, YIVYKIRRAWKRSKALK]"
target_entity = "Candida albicans ATCC 10231"
result = "(37.5) μg/ml"

[[record]]
substance = "YIVYKIRRARKRRKALK-OH [BOL-52, YIVYKIRRARKRRKALK]"
target_entity = "Candida albicans ATCC 10231"
result = "(37.5) μg/ml"

[[record]]
substance = "YIVYKIRWARKRWKALK-OH [BOL-51, YIVYKIRWARKRWKALK]"
target_entity = "Candida albicans ATCC 10231"
result = "(18.75) μg/ml"

[[record]]
substance = "YIVYKIRWAKKRWKALK-OH [BOL-60, YIVYKIRWAKKRWKALK]"
target_entity = "Candida albicans ATCC 10231"
result = "(18.75) μg/ml"


###

Test system: Escherichia coli ATCC 25922
Type: cell-based
measurement-parameters: ATCC 25922, 2 h
Ends that are not written are not given here.
readout-kind: minimum inhibition concentration (µg/mL)

[[record]]
substance = "YIVYKIRSARKRWKALK-OH [BOL-46, YIVYKIRSARKRWKALK]"
target_entity = "Escherichia coli ATCC 25922"
result_number = 200

[[record]]
substance = "YIVYKIRSAWKRWK-OH [BOL-70, YIVYKIRSAWKRWK]"
target_entity = "Escherichia coli ATCC 25922"
result_number = 100

[[record]]
substance = "YIVYKIRRAWKRRKALK-OH [BOL-54, YIVYKIRRAWKRRKALK]"
target_entity = "Escherichia coli ATCC 25922"
result_number = 100

[[record]]
substance = "YIVYKIRSARKRWK-OH [BOL-71, YIVYKIRSARKRWK]"
target_entity = "Escherichia coli ATCC 25922"
result_number = 300

[[record]]
substance = "YIVYKIRRAWKRWKALK-OH [BOL-55, YIVYKIRRAWKRWKALK]"
target_entity = "Escherichia coli ATCC 25922"
result_number = 12.5

[[record]]
substance = "YIVRKIRSAWKRWKALK-OH [BOL-79, YIVRKIRSAWKRWKALK]"
target_entity = "Escherichia coli ATCC 25922"
result_number = 3.125

[[record]]
substance = "YIVYKIRSARKRRKALK-OH [BOL-13, YIVYKIRSARKRRKALK]"
target_entity = "Escherichia coli ATCC 25922"
result_number = 18.75

[[record]]
substance = "YIVYKRRSARKRSKALK-OH [BOL-11, YIVYKRRSARKRSKALK]"
target_entity = "Escherichia coli ATCC 25922"
result_number = 37.5

[[record]]
substance = "YIVWKIRSAWKRWKALK-OH [BOL-82, YIVWKIRSAWKRWKALK]"
target_entity = "Escherichia coli ATCC 25922"
result_number = 18.75

[[record]]
substance = "YIVYKIRFAFKRSKAL [BOL-91, YIVYKIRFAFKRSKAL]"
target_entity = "Escherichia coli ATCC 25922"
result_number = 25


###

Below, each entry is listed with its recorded minimum inhibition concentration.
Test system: Escherichia coli ATCC 25922
Type: cell-based
measurement-parameters: ATCC 25922, 2 h
Ends that are not written are not given here.
readout-kind: minimum inhibition concentration (µg/mL)

[[record]]
substance = "YIVYKIRSADKRSKALK-OH [Bolisin]"
target_entity = "Escherichia coli ATCC 25922"
value_unit = "µg/mL"
result_operator = ">"
result_number = 300

[[record]]
substance = "YIVYKIRSAKKRKKALK-OH [BOL-56, YIVYKIRSAKKRKKALK]"
target_entity = "Escherichia coli ATCC 25922"
value_unit = "µg/mL"
result_operator = ">"
result_number = 300

[[record]]
substance = "YIVYKIRSAPKRSKALK-OH [BOL-21, YIVYKIRSAPKRSKALK]"
target_entity = "Escherichia coli ATCC 25922"
value_unit = "µg/mL"
result_operator = "="
result_number = 150

[[record]]
substance = "YIVYKIRSARKRWKAL [BOL-68, YIVYKIRSARKRWKAL]"
target_entity = "Escherichia coli ATCC 25922"
value_unit = "µg/mL"
result_operator = "="
result_number = 200

[[record]]
substance = "YIRYKRRSARKRRKALK-OH [BOL-18, YIRYKRRSARKRRKALK]"
target_entity = "Escherichia coli ATCC 25922"
value_unit = "µg/mL"
result_operator = "="
result_number = 18.75

[[record]]
substance = "YIVYKIRWADKRSKALK-OH [BOL-27, YIVYKIRWADKRSKALK]"
target_entity = "Escherichia coli ATCC 25922"
value_unit = "µg/mL"
result_operator = "="
result_number = 75

[[record]]
substance = "YIRYKIRSARKRRKALK-OH [BOL-17, YIRYKIRSARKRRKALK]"
target_entity = "Escherichia coli ATCC 25922"
value_unit = "µg/mL"
result_operator = "="
result_number = 37.5

[[record]]
substance = "YIVYKIRSAWKRRK-OH [BOL-69, YIVYKIRSAWKRRK]"
target_entity = "Escherichia coli ATCC 25922"
value_unit = "µg/mL"
result_operator = "="
result_number = 150

[[record]]
substance = "YIVYKIRSAWKRWKAL [BOL-67, YIVYKIRSAWKRWKAL]"
target_entity = "Escherichia coli ATCC 25922"
value_unit = "µg/mL"
result_operator = "="
result_number = 25

[[record]]
substance = "YIVWKIRSARKRWKALK-OH [BOL-81, YIVWKIRSARKRWKALK]"
target_entity = "Escherichia coli ATCC 25922"
value_unit = "µg/mL"
result_operator = "="
result_number = 300

[[record]]
substance = "YIVYKIRWAKKRWKALK-OH [BOL-60, YIVYKIRWAKKRWKALK]"
target_entity = "Escherichia coli ATCC 25922"
value_unit = "µg/mL"
result_operator = "="
result_number = 100

[[record]]
substance = "YIVYKIRRAWKRSKALK-OH [BOL-53, YIVYKIRRAWKRSKALK]"
target_entity = "Escherichia coli ATCC 25922"
value_unit = "µg/mL"
result_operator = "="
result_number = 200

